Data credit: paper PMC10574185

Tested on: Staphylococcus aureus ATCC 27734
Assay: Antagonistic activity, diffusion-well method
Type: cell-based
Conditions: ATCC27734, compounds at 2.5 µM, wells 8 mm, 37 °C, 18 h
readout: zone of inhibition at 2.5 µM

Some entries whose results are on file:
COc1ccc(C2CC(=NNC(N)=S)c3c(O)cc(O)cc3O2)cc1O (centres unmarked)	0 mm
COc1ccc(C2C/C(=N\NC(=O)c3ccncc3)c3c(O)cc(O)cc3O2)cc1O (racemic)	0 mm
CC(O)COC[C@H]1O[C@@H]2O[C@H]3[C@H](O)[C@@H](O)[C@@H](O[C@H]4[C@H](O)[C@@H](O)[C@@H](O[C@H]5[C@H](O)[C@@H](O)[C@@H](O[C@H]6[C@H](O)[C@@H](O)[C@@H](O[C@H]7[C@H](O)[C@@H](O)[C@@H](O[C@H]8[C@H](O)[C@@H](O)[C@@H](O[C@H]1[C@H](O)[C@H]2O)O[C@@H]8COCC(C)O)O[C@@H]7COCC(C)O)O[C@@H]6COCC(C)O)O[C@@H]5COCC(C)O)O[C@@H]4COCC(C)O)O[C@@H]3COCC(C)O (stereo partly drawn) [HP-β-CD, (2-Hydroxypropyl)-β-cyclodextrin]	0 mm
COc1ccc(C2C/C(=N\NC(=O)c3ccccc3)c3c(O)cc(O)cc3O2)cc1O (racemic)	0 mm

# next molecule below
# query: zone of inhibition at 2.5 µM of entry COc1ccc(C2CC(=O)c3c(O)cc(O)cc3O2)cc1O (centres unmarked) [Hesperetin, 3′,5,7-Trihydroxy-4′-methoxyflavanone]
0 mm

* * *

solubility at 60 min values for the compounds below.
Experiment: Phase solubility studies with HP-β-CD
Assay type: physicochemical
Details: aqueous buffer, thermodynamic from solid; 37 °C, pH 6.5 sodium phosphate buffer, without cyclodextrin; read-out: solubility without HP-β-CD (value in brackets) (converted)
Experimental: The purpose of this part of the study was to determine the solubility of compounds of hesperetin and its Schiff bases (HHSB, HIN, and HTSC) in aqueous solution at different pHs and temperatures, and the effect of their inclusion in modified HP-β-CD on the aqueous solubility of these compounds at different pH values. […] Complexation efficiency was calculated from the slope of the phase solubility diagram using Equation (2):(2) CE=S0×Kc=slope/1−slope […]
Field: numeric (µM). Do not append units.

Take a look at these entries with their results.
COc1ccc(C2C/C(=N\NC(=O)c3ccncc3)c3c(O)cc(O)cc3O2)cc1O (racemic) [HIN]	1
COc1ccc(C2CC(=O)c3c(O)cc(O)cc3O2)cc1O (stereo not shown) [Hesperetin, 3′,5,7-Trihydroxy-4′-methoxyflavanone]	85
COc1ccc(C2C/C(=N\NC(=O)c3ccccc3)c3c(O)cc(O)cc3O2)cc1O (racemic) [HHSB]	5

Report solubility at 60 min for COc1ccc(C2CC(=NNC(N)=S)c3c(O)cc(O)cc3O2)cc1O (stereo not shown) [HTSC] please.
27

* * *

Assay: Phase solubility studies with HP-β-CD
Assay type: physicochemical
Conditions: aqueous buffer, thermodynamic from solid; 60 °C, pH 8.5 sodium borate buffer, without cyclodextrin; read-out: solubility without HP-β-CD (value in brackets) (converted)
Here the recorded solubility at 60 min is given for each entry.

COc1ccc(C2C/C(=N\NC(=O)c3ccccc3)c3c(O)cc(O)cc3O2)cc1O (racemic) [HHSB]	18 µM
COc1ccc(C2C/C(=N\NC(=O)c3ccncc3)c3c(O)cc(O)cc3O2)cc1O (racemic) [HIN]	143 µM
COc1ccc(C2CC(=NNC(N)=S)c3c(O)cc(O)cc3O2)cc1O (stereo not shown) [HTSC]	250 µM

Attention now turns to another entry.
Given the compound COc1ccc(C2CC(=O)c3c(O)cc(O)cc3O2)cc1O (stereo not shown) [Hesperetin, 3′,5,7-Trihydroxy-4′-methoxyflavanone] , what is its reported solubility at 60 min?
120 µM
